Listed below: koff values for each entry.
# target or test system: T1, truncated cTfR1 of SEQ ID NO:123 (cynomolgus monkey, UniProt Q5RDH6 122-760 (Pongo abelii entry))
# T1 construct: also called cynomolgus TfR1
# T1 chain: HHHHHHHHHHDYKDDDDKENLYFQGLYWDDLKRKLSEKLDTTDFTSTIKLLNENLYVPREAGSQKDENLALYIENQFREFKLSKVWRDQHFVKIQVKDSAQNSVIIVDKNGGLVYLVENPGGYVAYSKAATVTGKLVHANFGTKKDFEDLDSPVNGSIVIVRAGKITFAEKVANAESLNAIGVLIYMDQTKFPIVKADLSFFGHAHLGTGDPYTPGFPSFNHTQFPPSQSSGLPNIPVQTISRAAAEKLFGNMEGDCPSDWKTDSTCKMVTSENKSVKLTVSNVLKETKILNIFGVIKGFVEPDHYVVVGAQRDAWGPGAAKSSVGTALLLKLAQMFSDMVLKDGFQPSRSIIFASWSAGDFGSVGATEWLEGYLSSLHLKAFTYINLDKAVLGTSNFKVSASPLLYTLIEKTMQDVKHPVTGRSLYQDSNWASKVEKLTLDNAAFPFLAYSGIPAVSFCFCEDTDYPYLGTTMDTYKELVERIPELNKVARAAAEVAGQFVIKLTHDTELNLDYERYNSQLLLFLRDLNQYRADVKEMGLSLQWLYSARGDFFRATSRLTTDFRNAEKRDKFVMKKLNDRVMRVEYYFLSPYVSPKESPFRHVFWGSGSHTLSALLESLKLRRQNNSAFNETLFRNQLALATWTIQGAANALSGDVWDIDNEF
# assay procedure: SPR, FLAG-captured TfR1, scFv injected, 1:1 fit
Answer format: numeric, s⁻¹ implied, no suffix.

binder="h26D3 HC6 DS T120K (scFv, also called h26D3 DS T120K) scFv: HHHHHHGGGGSGGGGSGGGGSGGGGSDIQMTQSPSSVSASVGDRVTITCKSSQSLLYSTNQKNYLAWYQQKPGKAPKLLIYWASTRESGVPSRFSGSGSGTDFTLTISSLQPEDFATYYCQQYFIYPRTFGCGTKVEIKGGGGSGGGGSGGGGSGGGGSEVQLVQSGAEVKKPGSSVKVSCKASGYIFTDYNMDWVRQAPGQCLEWIGDINPDADTTSYNEKFKGRATLTVDKSTSTAYMELSSLRSEDTAVYYCARGGYSGSSYYHPMDYWGQGTLVKVSS" property_label=koff assay_result=0.0113

Please find the next binder below.
koff reading for h26D3 HC6 DS S16E (scFv, also called h26D3 DS S16E) scFv: HHHHHHGGGGSGGGGSGGGGSGGGGSDIQMTQSPSSVSASVGDRVTITCKSSQSLLYSTNQKNYLAWYQQKPGKAPKLLIYWASTRESGVPSRFSGSGSGTDFTLTISSLQPEDFATYYCQQYFIYPRTFGCGTKVEIKGGGGSGGGGSGGGGSGGGGSEVQLVQSGAEVKKPGESVKVSCKASGYIFTDYNMDWVRQAPGQCLEWIGDINPDADTTSYNEKFKGRATLTVDKSTSTAYMELSSLRSEDTAVYYCARGGYSGSSYYHPMDYWGQGTLVTVSS : 0.0121
